- Study System: Adenosine kinase (Homo sapiens, UniProt P55263)
- Sequence (P55263 2-362 limits assumed): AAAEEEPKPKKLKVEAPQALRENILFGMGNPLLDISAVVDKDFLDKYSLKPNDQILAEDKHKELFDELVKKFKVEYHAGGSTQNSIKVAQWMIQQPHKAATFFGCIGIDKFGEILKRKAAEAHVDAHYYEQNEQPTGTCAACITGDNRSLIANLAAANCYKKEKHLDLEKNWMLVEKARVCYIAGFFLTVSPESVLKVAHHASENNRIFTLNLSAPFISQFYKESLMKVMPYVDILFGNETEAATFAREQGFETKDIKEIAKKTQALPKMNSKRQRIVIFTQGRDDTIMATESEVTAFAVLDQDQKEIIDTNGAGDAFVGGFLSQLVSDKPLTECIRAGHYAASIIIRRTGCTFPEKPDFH
- Measurement Protocol: Binding affinity to human ADK expressed in Escherichia coli BL21(DE3) cells assessed as relative STD enhancements of signal from H-8 at 500 uM by 1H STD NMR spectroscopy
Activity overview
Reported Metric: Activity

INSERT INTO results (entry_smiles, observed) VALUES
  ('Nc1ncnc2c1c(-c1cccc3c1Oc1ccccc1S3)cn2[C@@H]1O[C@H](CO)[C@@H](O)[C@H]1O', '39%'),
  ('Nc1ncnc2c1ncn2[C@@H]1O[C@H](CO)[C@@H](O)[C@H]1O', '20%'),
  ('Nc1ncnc2c1ncn2[C@@H]1O[C@H](COP(=O)(O)OP(=O)(O)OP(=O)(O)O)[C@@H](O)[C@H]1O', '< 1%'),
  ('Nc1ncnc2c1c(-c1nccs1)cn2[C@@H]1O[C@H](CO)[C@@H](O)[C@H]1O', '41%'),
  ('C#Cc1cn([C@@H]2O[C@H](CO)[C@@H](O)[C@H]2O)c2ncnc(N)c12', '17%'),
  ('CC(C)c1cccc(-c2cn([C@@H]3O[C@H](CO)[C@@H](O)[C@H]3O)c3ncnc(N)c23)c1', '72%'),
  ('Nc1ncnc2c1c(-c1ccco1)cn2[C@@H]1O[C@H](CO)[C@@H](O)[C@H]1O', '36%');

Where do the numbers come from? From ChEMBL document CHEMBL3352218.
